Taken from patent US20170029355A1.

- Test system: velvetleaf
- test.summary: Field testing of emulsifiable concentrates, post-emergent control (Example 40)
- Assay type: in vivo
- assay.context: 280 g dicamba acid equivalent per hectare
The entries below are paired with their reported % control 19 days after treatment, 280 g/ha, Velvetleaf.
Write the quantity with the unit trailing the number.

For orientation, consider the following solved cases.
> print(dat)
                                   compound    result
1  COc1ccc(OC(=O)c2c(Cl)ccc(Cl)c2OC)cc1 [Ester 30a, 4-methoxyphenyl ester of dicamba]  56 ± 25%
2  COc1c(Cl)ccc(Cl)c1C(=O)O.NCCOCCO [Diglycolamine salt, diglycolamine salt of dicamba, reference compound]  78 ± 10%
3  COc1c(Cl)ccc(Cl)c1C(=O)Oc1nc(C(C)(C)C)cc(C(C)(C)C)c1C#N [Ester 36a]  72 ± 25%

Next compound, please.
QUERY: Data request, read-out % control 19 days after treatment, 280 g/ha, Velvetleaf, for COc1c(Cl)ccc(Cl)c1C(=O)Oc1ccc(=O)n(CCC(C)=O)n1 [Ester 32a]
RESULT: 59 ± 28%
